# Assay target: recombinant human MAO-A (Homo sapiens, UniProt P21397)
# Sequence (P21397 1-527): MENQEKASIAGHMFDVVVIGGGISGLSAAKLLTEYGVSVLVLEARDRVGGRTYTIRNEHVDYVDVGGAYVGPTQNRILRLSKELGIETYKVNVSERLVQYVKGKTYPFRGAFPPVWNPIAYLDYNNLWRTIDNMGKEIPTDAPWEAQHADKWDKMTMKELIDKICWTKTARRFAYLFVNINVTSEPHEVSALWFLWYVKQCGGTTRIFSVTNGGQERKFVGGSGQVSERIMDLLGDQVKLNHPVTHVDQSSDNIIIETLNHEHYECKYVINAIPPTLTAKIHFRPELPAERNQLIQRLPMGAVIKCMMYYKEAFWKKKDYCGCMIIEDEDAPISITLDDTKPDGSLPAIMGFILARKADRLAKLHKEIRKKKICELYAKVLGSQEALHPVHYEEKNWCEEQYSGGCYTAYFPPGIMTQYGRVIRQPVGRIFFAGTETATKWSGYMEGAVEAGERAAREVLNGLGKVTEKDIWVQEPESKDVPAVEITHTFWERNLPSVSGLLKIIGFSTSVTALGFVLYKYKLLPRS
# Method notes: MAO-A inhibition, kynuramine deamination assay (IC50)
# Condition info: pure compounds; 80 μM kynuramine; mean ± S.D. of triplicate; read-out: Monoamine Oxidase-A (IC50)
# strict inequality: IC50 < 2000 nM yields y, everything else yields n

Example entries and their recorded answers appear below.
[
  {
    "Molecule": "O=c1cc(-c2ccc(O)cc2)oc2cc(O)cc(O)c12 [Apigenin, apigenin]",
    "Cat": "y"
  },
  {
    "Molecule": "O=C1c2c(O)cc(O)cc2OC(c2ccc(O)c(O)c2)C1O (stereo not drawn) [Toxifolin, taxifolin]",
    "Cat": "n"
  },
  {
    "Molecule": "O=c1c(O)c(-c2ccc(O)c(O)c2)oc2cc(O)ccc12 [Fisetin hydrate, fisetin]",
    "Cat": "n"
  },
  {
    "Molecule": "O=c1c(O)c(-c2ccc(O)c(O)c2)oc2cc(O)cc(O)c12 [Quercetin, quercetin]",
    "Cat": "n"
  },
  {
    "Molecule": "O=c1c(O)c(-c2ccccc2)oc2cc(O)cc(O)c12 [Galangin, galangin]",
    "Cat": "y"
  }
]

Consider now this further molecule.
Query block: For O=c1c(O)c(-c2ccc(O)cc2O)oc2cc(O)cc(O)c12 [Morin hydrate, morin] , is the recorded IC50 below the cut-off of 2000 nM?
Result block: n

====

# Assay target: recombinant human MAO-B (Homo sapiens, UniProt P27338)
# Sequence (P27338 1-520): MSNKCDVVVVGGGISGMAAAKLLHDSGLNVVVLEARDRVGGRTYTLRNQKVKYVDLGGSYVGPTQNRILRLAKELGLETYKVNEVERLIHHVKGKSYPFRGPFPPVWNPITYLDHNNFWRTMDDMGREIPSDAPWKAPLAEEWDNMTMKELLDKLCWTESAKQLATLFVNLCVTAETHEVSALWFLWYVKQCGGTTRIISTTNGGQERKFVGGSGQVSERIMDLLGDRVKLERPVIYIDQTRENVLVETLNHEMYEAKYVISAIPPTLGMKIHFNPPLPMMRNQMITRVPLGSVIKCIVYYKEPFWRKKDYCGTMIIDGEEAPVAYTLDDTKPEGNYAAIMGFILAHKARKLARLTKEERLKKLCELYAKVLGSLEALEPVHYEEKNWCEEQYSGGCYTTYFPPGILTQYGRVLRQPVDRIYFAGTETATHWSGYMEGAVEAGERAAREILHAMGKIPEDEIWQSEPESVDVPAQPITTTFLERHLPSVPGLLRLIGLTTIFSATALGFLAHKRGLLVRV
# Method notes: Enzyme kinetics / inhibition mechanism, MAO-B (Ki, Lineweaver-Burk)
# Condition info: kynuramine 1.90-500 μM; SigmaPlot enzyme module; mean ± S.D. of triplicate experiments; read-out: Monoamine Oxidase-B Ki
Measured endpoint: Ki

Query block: Recall the recorded Ki for O=c1cc(-c2ccc(O)cc2)oc2cc(O)cc(O)c12 with recombinant human MAO-B (Homo sapiens, UniProt P27338) and state it.
Result block: 238 nM

====

Field: IC50. Provide a value for each of the molecules that follow.
# Assay target: recombinant human MAO-B (Homo sapiens, UniProt P27338)
# Sequence (P27338 1-520): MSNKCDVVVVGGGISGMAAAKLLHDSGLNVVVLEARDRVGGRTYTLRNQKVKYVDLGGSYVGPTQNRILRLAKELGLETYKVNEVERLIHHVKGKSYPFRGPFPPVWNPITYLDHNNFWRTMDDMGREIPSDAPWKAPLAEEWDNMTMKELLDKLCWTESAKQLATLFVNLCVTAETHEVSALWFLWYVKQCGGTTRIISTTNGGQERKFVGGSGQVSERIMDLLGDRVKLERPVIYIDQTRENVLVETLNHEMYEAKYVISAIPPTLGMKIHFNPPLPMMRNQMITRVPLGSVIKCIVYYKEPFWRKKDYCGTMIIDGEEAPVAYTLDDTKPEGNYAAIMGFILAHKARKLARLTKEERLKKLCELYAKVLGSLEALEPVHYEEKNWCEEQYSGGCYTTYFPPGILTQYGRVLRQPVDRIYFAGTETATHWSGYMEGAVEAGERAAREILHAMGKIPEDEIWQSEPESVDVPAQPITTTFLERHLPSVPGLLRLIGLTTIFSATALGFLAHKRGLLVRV
# Method notes: MAO-B inhibition, kynuramine deamination assay (IC50)
# Condition info: pure compounds; 50 μM kynuramine; mean ± S.D. of triplicate; read-out: Monoamine Oxidase-B (IC50)
# Protocol: To investigate the effect of the selected constituents on MAO-A and MAO-B, the kynuramine deamination assay was adapted for 96-well plates as described earlier. […] Inhibition was calculated as percent of product formation compared to the corresponding control (enzyme-substrate reaction) without the inhibitors. […] IC50 values for inhibition of MAO-A and B by the selected constituents were determined using fixed concentration of substrate and varying concentration of the inhibitor.
Answers are plain numbers, in µM.

// worked examples, IC50 included
[
  {
    "Molecule": "O=c1c(O)c(-c2ccc(O)c(O)c2)oc2cc(O)cc(O)c12",
    "Result unit": "µM",
    "IC50": 38.7
  },
  {
    "Molecule": "O=c1cc(-c2ccc(O)cc2)oc2cc(O)cc(O)c12",
    "Result unit": "µM",
    "IC50": 1.12
  },
  {
    "Molecule": "O=C1c2c(O)cc(O)cc2OC(c2ccc(O)c(O)c2)C1O (stereo not drawn)",
    "Result unit": "µM",
    "IC50": 53.8
  },
  {
    "Molecule": "O=c1c(O)c(-c2ccc(O)cc2O)oc2cc(O)cc(O)c12 [Morin hydrate, morin]",
    "Result unit": "µM",
    "IC50": 49.7
  }
]

Query block: Can you look up the measured IC50 of COc1ccc2c(c1)[nH]c1c(C)nccc12 [Harmine, reference compound] for me?
Result block: 27.5

====

# Assay target: recombinant human MAO-A (Homo sapiens)
# Method notes: Enzyme kinetics / inhibition mechanism, MAO-A (Ki, Lineweaver-Burk)
# Condition info: kynuramine 1.90-500 μM; SigmaPlot enzyme module; mean ± S.D. of triplicate experiments; read-out: Monoamine Oxidase-A Ki
Field: pKi. Provide a value for each of the molecules that follow.
One number for each entry, as −log10 of the molar value.

[
  {
    "Smiles structure": "O=c1cc(-c2ccc(O)cc2)oc2cc(O)cc(O)c12",
    "pKi": 6.90
  }
]

# context switch: different molecule, same pKi
Query block: Recall the recorded pKi for O=c1c(O)c(-c2ccccc2)oc2cc(O)cc(O)c12 with recombinant human MAO-A (Homo sapiens) and state it.
Result block: 7.54
